Tested on: MS2 coat protein
Experiment: apparent KD of MS2 coat protein; designed switch direction (-1 OFF switch, 1 ON switch): 1; higher = weaker reporter binding
Settings: input ligand: none
readout-kind: apparent KD of MS2 coat protein
# include the unit after the value

Completed entries (count: 3):
UGAAUAUUUACAGGAUAUGAGUUGUAUAGUGGGUCAGAAGGGUGGGUGUUUUGCACGGUGUGUUACAUGAGGAUCACCCAUGUU [SameState NG1 #27] (Eterna round: R96, puzzle: Same State NG 1); 0.146 µM
AGAUCAUGACGAGGAUAUGCCACAUGAGGAUCACCCAUGUAUGUGGUAGGACGGAAACGUCCAAAGCAGAAGGCGUCGUGGUCA [Mat - Same State NG 2 - JL mod - D35] (Eterna round: R96, puzzle: Same State NG 2); 0.0417 µM
GCUCGAAUCACAGCCAACAUGAGGAUCACCCAUGUGUGUUGGUAGGAUAUCGUUUCUAAGGGAAACGAGAAGGGCCGAACGAGC [SameState NG3 #9] (Eterna round: R96, puzzle: Same State NG 3); 0.0521 µM

Field apparent KD of MS2 coat protein (system: MS2 coat protein) for entry UAGUGUUUGCGAGGAUAUCGUUUGUUGAAGUUACGAGAAGGCGCUCUAAUUACAUGAGGAUCACCCAUGUCUGUGAUGCAUGAU [JR_SSNG1_Sub070] (Eterna round: R96, puzzle: Same State NG 1) = 0.07 µM

====

Test system: MS2 coat protein
Experiment: apparent KD of MS2 coat protein; designed switch direction (-1 OFF switch, 1 ON switch): 1; higher = weaker reporter binding
Settings: input ligand: microRNA oligo, concentration not stated
Would you please tag the item Satisfied when its apparent KD of MS2 coat protein is 30 nM or above, and Not satisfied when it is below?

Task: Determine whether this sequence has apparent KD of MS2 coat protein no lower than 30 nM: GCUACCAAAGAAGCCUACAUGAGGAUCACCCAUGUAUGUAGGCAGGAUAUCGAUUGCAAAGCGAUCGAGAAGGGCUUAGGUAGC [Mat - Same State NG 3 - JL Mod - D92] (Eterna round: R96, puzzle: Same State NG 3)
Output: Satisfied

Task: Hi team, for GAAAAGCAGAGAGGAUAUGUCACUCAUGCCGUGACACAUGAGGAUCACCCAUGUUCAAUCCGGCCGCAGAAGGCUCCGCGAAAA [Eternabot solution 25] (Eterna round: R96, puzzle: Same State NG 2) , is the recorded apparent KD of MS2 coat protein at or above 30 nM?
Output: Not satisfied

Task: Dear colleague, could you confirm whether GUAGUACAUGAGGAUCACCCAUGUUUCCUCCAAGAGUUCUUCGAGGAUAUGUCAUGGAAUCCACAAUAGAAGGCGGAGAACCAA [Eternabot solution 39] (Eterna round: R96, puzzle: Same State NG 3) has apparent KD of MS2 coat protein at or above 30 nM?
Output: Satisfied

Task: Kindly determine if apparent KD of MS2 coat protein recorded for GCCGCGUUUCGCGCCUACAUGAGGAUCACCCAUGUUUGUAGGCAGGAUAUCGUCCGCUCUGCGGGCGAGAAGGGCUGUUGUGGC [salish99_SSNG3_R04_022] (Eterna round: R96, puzzle: Same State NG 3) is above or exactly 30 nM.
Output: Satisfied

Task: Quick check: does AAGAGGUCCGCAGGAUAUACCCGGCCUCGCCGGGUAGAAGGGUGAACCUCAUAACCCACCACACACAUGAGGAUCACCCAUGUA [Enisaon] (Eterna round: R96, puzzle: Same State NG 1) have apparent KD of MS2 coat protein greater than or equal to 30 nM?
Output: Not satisfied

Task: Given the entry UAAAUAAAGUAAGGAUAUACAUGAGGAUCUCUCGUAGAAGGUACUAUACAUGAGGAUCACCCAUGUGCCGGUCCGUAGACUGGA [Mat - Same State NG 1 - JL mod - D8] (Eterna round: R96, puzzle: Same State NG 1) , answer whether its apparent KD of MS2 coat protein meets or surpasses 30 nM.
Output: Satisfied
